Data provenance: patent US7163946B2

MEASURED_TARGET: hPR (Homo sapiens, UniProt P06401)
Sequence (P06401 whole entry): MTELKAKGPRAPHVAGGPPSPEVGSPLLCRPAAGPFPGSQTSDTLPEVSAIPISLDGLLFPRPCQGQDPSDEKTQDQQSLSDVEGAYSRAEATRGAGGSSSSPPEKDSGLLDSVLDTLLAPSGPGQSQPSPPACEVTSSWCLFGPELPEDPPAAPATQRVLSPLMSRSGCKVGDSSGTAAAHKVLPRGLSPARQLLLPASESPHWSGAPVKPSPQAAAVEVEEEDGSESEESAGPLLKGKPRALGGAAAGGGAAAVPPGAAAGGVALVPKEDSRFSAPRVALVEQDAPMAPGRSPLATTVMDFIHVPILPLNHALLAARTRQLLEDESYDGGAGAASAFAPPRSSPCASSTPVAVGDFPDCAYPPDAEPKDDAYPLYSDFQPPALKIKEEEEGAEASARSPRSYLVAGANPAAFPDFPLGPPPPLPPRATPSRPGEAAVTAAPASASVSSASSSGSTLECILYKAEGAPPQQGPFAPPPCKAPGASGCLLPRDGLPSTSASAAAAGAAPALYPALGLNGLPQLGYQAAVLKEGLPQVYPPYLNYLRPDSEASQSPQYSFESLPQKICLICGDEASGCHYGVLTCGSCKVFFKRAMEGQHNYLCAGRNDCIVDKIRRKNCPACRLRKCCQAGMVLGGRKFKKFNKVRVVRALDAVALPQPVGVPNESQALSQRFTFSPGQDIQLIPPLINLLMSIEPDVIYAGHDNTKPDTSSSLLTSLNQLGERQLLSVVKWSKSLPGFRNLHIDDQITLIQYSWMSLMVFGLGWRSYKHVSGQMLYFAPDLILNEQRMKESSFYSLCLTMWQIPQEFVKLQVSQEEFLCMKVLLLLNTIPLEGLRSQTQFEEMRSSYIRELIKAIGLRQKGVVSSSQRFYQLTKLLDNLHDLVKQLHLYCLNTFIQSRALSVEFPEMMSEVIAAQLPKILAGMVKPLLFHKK
METHOD_DESCRIPTION: hPR cotransfection assay in CV-1 cells, agonist mode
Assay type: cell-based
ASSAY_SETUP: Tables 3 and 4, values without footnote; read-out: hPR agonist potencies (EC50 in nM) in the cotransfection assay
READOUT: log10 EC50 (log10 of the value in nM)
Recorded EC50 (log10, nM)

Would you please look over these solved cases?
COMPOUND | log10 EC50
CC1=CC(C)(C)Nc2ccc3c(c21)/C(=C/c1cc(F)ccc1C)Oc1c(F)cc(F)cc1-3 | 0.15
COc1ccc2c(c1)O/C(=C\c1ccccc1)c1c-2ccc2c1C(C)=CC(C)(C)N2 [Formula II X=8-OMe Phenyl, reference compound] | 0.74
C=CCC1Oc2c(F)cc(F)cc2-c2ccc3c(c21)C(C)=CC(C)(C)N3 (racemic) | 0.56
CC1=CC(C)(C)Nc2ccc3c(c21)/C(=C/c1cccc(F)c1)Oc1ccc(O)cc1-3 [Formula II X=9-OH 3-F-Ph, reference compound] | 0.76
CC1=CC(C)(C)Nc2ccc3c(c21)/C(=C/c1cc(F)ccc1C)Oc1ccccc1-3 [Formula II X=H 2-Me-5-F-Ph, reference compound] | 0.41
CC1=CC(C)(C)Nc2ccc3c(c21)/C(=C/c1cccc(F)c1)Oc1c(F)cc(F)cc1-3 | 0.58

QUERY: May I ask what log10 EC50 has been recorded for `COc1ccccc1/C=C1\Oc2c(F)cc(F)cc2-c2ccc3c(c21)C(C)=CC(C)(C)N3` ?
RESULT: 0.11

QUERY: May I ask what log10 EC50 has been recorded for CC1=CC(C)(C)Nc2ccc3c(c21)/C(=C/c1cccc(F)c1)Oc1ccc(F)cc1-3 [Formula II X=9-F 3-F-Ph, reference compound] ?
RESULT: 0.85

QUERY: May I ask what log10 EC50 has been recorded for COc1ccccc1/C=C1\Oc2ccc(F)cc2-c2ccc3c(c21)C(C)=CC(C)(C)N3 [Formula II X=9-F 2-MeO-Ph, reference compound] ?
RESULT: -0.03

QUERY: May I ask what log10 EC50 has been recorded for CC1=CC(C)(C)Nc2ccc3c(c21)/C(=C/c1ccccc1Cl)Oc1ccc(F)cc1-3 [Formula II X=9-F 2-Cl-Ph, reference compound] ?
RESULT: 1.08

QUERY: May I ask what log10 EC50 has been recorded for CC1=CC(C)(C)Nc2ccc3c(c21)C(c1ccc(Br)cc1)Oc1c(F)cc(F)cc1-3 (racemic) ?
RESULT: 0.70

QUERY: May I ask what log10 EC50 has been recorded for CC1=CC(C)(C)Nc2ccc3c(c21)C(c1cccc(Cl)c1)Oc1ccc(C)cc1-3 (centres unmarked) [Formula I X=9-Me 3-Cl-Ph, reference compound] ?
RESULT: 0.69

QUERY: May I ask what log10 EC50 has been recorded for `CC1=CC(C)(C)Nc2ccc3c(c21)/C(=C/c1ccccc1Cl)Oc1c(F)cc(F)cc1-3` ?
RESULT: 0.28

QUERY: May I ask what log10 EC50 has been recorded for CC1=CC(C)(C)Nc2ccc3c(c21)/C(=C/c1cccc(F)c1)Oc1cc(F)ccc1-3 [Formula II X=8-F 3-F-Ph, reference compound] ?
RESULT: 2.04

QUERY: May I ask what log10 EC50 has been recorded for CC1=CC(C)(C)Nc2ccc3c(c21)C(c1ccc(Cl)c(C)c1)Oc1c(F)cc(F)cc1-3 (racemic) ?
RESULT: 0.09
